# Experimental target: Torsin-1A (Homo sapiens) (UniProt O14656)
# Sequence (O14656 whole entry, looked up): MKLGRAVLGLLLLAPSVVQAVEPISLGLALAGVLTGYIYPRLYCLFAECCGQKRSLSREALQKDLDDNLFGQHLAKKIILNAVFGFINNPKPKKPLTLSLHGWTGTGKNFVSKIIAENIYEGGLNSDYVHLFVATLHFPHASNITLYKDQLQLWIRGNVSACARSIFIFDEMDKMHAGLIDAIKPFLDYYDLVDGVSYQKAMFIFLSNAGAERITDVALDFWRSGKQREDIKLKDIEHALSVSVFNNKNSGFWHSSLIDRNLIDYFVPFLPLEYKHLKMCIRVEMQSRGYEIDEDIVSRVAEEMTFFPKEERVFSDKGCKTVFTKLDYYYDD
# Measurement protocol: torsin A binders from cell lysate, primary screen, small-molecule microarray, wild-type, 635/667 nm (AID 1149)
# Condition details: COS7 hTOR1A-WT lysate, 635 nm fluorescence, higher = more signal
Endpoint name: composite z-score
When you answer, write just the number.

query: Data request, read-out composite z-score, for "C=C(CCCC)/C(=C/C[C@H](OC(=O)c1ccncc1)c1ccccc1OCCO)c1cnc2ccccc2c1"
result: 0.609

query: Data request, read-out composite z-score, for "O=C(NCCN1CCOCC1)[C@@H]1c2ccccc2C(=O)N(C2CCCCC2)[C@H]1c1ccc(CO)cc1"
result: -0.945

query: Data request, read-out composite z-score, for "O=C1C[C@]2(c3ccc([N+](=O)[O-])cc3)C(=O)N(CC(F)(F)F)c3cc(CO)ccc3[C@H]2N1C1CCCCC1"
result: -0.628

query: Data request, read-out composite z-score, for "CCCC[C@H]1OB(O)C[C@H]2C1=C(COC)C[C@H]1C(=O)N(C)C(=O)[C@H]12"
result: 0.408

query: Data request, read-out composite z-score, for "COCCOC(=O)N1C(=O)[C@@]2(c3ccccc31)[C@H](c1ccccc1OCCO)N1[C@H](c3ccccc3)[C@H](c3ccccc3)OC(=O)[C@H]1[C@@H]2C(=O)N1CCN(c2ncccn2)CC1"
result: 0.447

query: Data request, read-out composite z-score, for "COc1ccc([Si](C)(C)[C@H]2[C@H](CC(=O)N3Cc4ccccc4C[C@H]3CO)O[C@@]3(C(=O)N(Cc4cccc(N5CCC5=O)c4)c4ccccc43)[C@@H]2C)cc1"
result: 0.906

query: Data request, read-out composite z-score, for "CC(C)C(=C=CC[C@@H](O)c1ccc(OCCO)cc1)C[C@@H](O)c1ccccn1"
result: 0.75

query: Data request, read-out composite z-score, for "COC(=O)[C@@]1(CCC(=O)OC(C)(C)C)N=C(c2ccc(OCCCO)cc2)O[C@H]1c1ccccc1N=[N+]=[N-]"
result: -0.184

query: Data request, read-out composite z-score, for "COc1cc2c(cc1OC)CN(C(=O)[C@H]1[C@@H]3C(=O)O[C@@H](c4ccccc4)[C@@H](c4ccccc4)N3[C@@H](c3ccc(O)cc3)[C@]13C(=O)Nc1ccc(C#CCCO)cc13)CC2"
result: 0.0143

query: Data request, read-out composite z-score, for C[C@H]1C2[C@H](Cc3ccccc3)NC(=O)[C@]23C(=O)N[C@H](Cc2ccccc2)C(=O)N2CCC[C@H]2C(=O)NC/C=C\C/C=C/C3[C@@H]2O[C@]12C (stereo not given in full)
result: 0.221

query: Data request, read-out composite z-score, for "CCCC[C@@H]1C[C@H]1[C@@H](NC(=O)c1ccccc1)c1ccc(C(=O)OC)cc1"
result: -2.83

query: Data request, read-out composite z-score, for "COCCOC(=O)N1C(=O)[C@@]2(c3ccccc31)[C@H](C(=O)N1CCc3cc(OC)c(OC)cc3C1)[C@H]1C(=O)O[C@H](c3ccccc3)[C@H](c3ccccc3)N1[C@@H]2c1ccc(OCCO)cc1"
result: 0.0657

query: Data request, read-out composite z-score, for "COC(=O)[C@@]1(Cc2ccc(OC)cc2)[C@H]2c3cc(C(=O)N(C)C)n(Cc4ccccn4)c3C[C@H]2CN1C(=O)c1ccccc1"
result: 0.192

query: Data request, read-out composite z-score, for "O=C(c1ccccc1)N1C(=O)[C@@]2(Cc3ccccc31)N=C(c1ccc(OCCCO)cc1)O[C@H]2c1ccccc1"
result: 0.388

query: Data request, read-out composite z-score, for "C=CCN1C(=O)[C@]2(O[C@H](CCn3cc([C@H](O)c4ccccc4)nn3)[C@@H]([Si](C)(C)c3ccc(OC)cc3)[C@@H]2C)c2cc(N3CCC3=O)ccc21"
result: 0.279
